Assay: Metabolic stability in mouse liver microsomes assessed as compound remaining at 1 umol/L after 15 to 30 mins by LC/MS/MS analysis
Assay type: ADME, Microsome
Conditions: read-out: Stability
Measured microsomal CLint at 1 µM, listed per entry.
Numbers only; they are read as µL/min/mg.

Problem: Which microsomal CLint at 1 µM is reported for this compound? CN[C@@H](C)C(=O)N[C@H](C(=O)N1C[C@H]2C[C@H]3C[C@H]3N2C[C@H]1C(=O)N[C@@H]1CCOc2ccccc21)C1CCCCC1
Result: 45

Problem: Which microsomal CLint at 1 µM is reported for this compound? CN[C@@H](C)C(=O)N[C@H](C(=O)N1C[C@H]2C[C@@H]3C[C@@H]3N2C[C@H]1C(=O)N[C@@H]1CCOc2ccccc21)C1CCCCC1
Result: 96
